These entries and their values trace back to patent US5089516A.

Listing of recorded inhibition at 10 µM by entry.
# target_under_test: 5-lipoxygenase (Cavia porcellus)
# Construct: The cytosol fraction was used as an enzyme solution; from tissue; host or cells: peritoneal exudate cells of casein-injected Hartley guinea pigs, 105,000×g cytosol
# Sequence (A0A286X958 1-674): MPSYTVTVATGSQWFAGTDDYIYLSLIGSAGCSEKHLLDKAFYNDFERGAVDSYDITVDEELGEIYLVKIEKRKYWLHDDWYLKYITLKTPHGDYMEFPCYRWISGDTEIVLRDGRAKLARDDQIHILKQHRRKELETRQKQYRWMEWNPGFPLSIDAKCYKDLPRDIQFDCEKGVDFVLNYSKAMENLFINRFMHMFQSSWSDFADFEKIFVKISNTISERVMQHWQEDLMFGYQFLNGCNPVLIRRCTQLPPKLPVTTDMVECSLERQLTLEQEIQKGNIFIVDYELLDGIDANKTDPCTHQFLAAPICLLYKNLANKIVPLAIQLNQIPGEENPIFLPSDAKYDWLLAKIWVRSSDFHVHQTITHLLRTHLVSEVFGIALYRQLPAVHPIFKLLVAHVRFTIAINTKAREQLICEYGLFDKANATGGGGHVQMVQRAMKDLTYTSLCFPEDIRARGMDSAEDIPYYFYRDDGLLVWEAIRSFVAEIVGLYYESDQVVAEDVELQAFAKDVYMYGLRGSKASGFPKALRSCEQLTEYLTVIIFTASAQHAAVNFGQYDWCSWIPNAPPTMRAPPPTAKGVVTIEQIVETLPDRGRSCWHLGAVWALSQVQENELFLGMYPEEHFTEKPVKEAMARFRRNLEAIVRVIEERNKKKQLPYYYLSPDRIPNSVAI
# measurement_notes: 5-Lipoxygenase inhibiting activity (5-HETE formation, cytosol of peritoneal exudate cells)
# Assay type: biochemical, Hartley guinea pigs
# experimental_context: 10 μM in the reaction mixture; read-out: Inhibition rate (5-lipoxygenase)

>  <compound>
O=C1NN(c2ccccc2)C(=O)C1=Cc1cc(Cc2ccccc2)c(O)c(Cc2ccccc2)c1 [Compound 20]

>  <inhibition at 10 µM, %>
83

$$$$
>  <compound>
CC(C)c1cc(C=C2SC(NCc3ccc(F)cc3)=NC2=O)cc(C(C)C)c1O [Compound 35]

>  <inhibition at 10 µM, %>
89

$$$$
>  <compound>
CC(C)c1cc(C=C2SC(NCc3ccc([N+](=O)[O-])cc3)=NC2=O)cc(C(C)C)c1O [Compound 40]

>  <inhibition at 10 µM, %>
87

$$$$
>  <compound>
O=C1Nc2ccccc2C1=Cc1cc(Cc2ccccc2)c(O)c(Cc2ccccc2)c1 [Compound 4]

>  <inhibition at 10 µM, %>
85

$$$$
>  <compound>
CC(C)c1cc(C=C2SC(NCc3ccc(Cl)cc3)=NC2=O)cc(C(C)C)c1O [Compound 36]

>  <inhibition at 10 µM, %>
84

$$$$
>  <compound>
COc1ccc(CNC2=NC(=O)C(=Cc3cc(C(C)C)c(O)c(C(C)C)c3)S2)cc1 [Compound 38]

>  <inhibition at 10 µM, %>
88

$$$$
